Molecular target: HDAC6 (Homo sapiens, UniProt Q9UBN7)
Sequence (Q9UBN7 1-1215): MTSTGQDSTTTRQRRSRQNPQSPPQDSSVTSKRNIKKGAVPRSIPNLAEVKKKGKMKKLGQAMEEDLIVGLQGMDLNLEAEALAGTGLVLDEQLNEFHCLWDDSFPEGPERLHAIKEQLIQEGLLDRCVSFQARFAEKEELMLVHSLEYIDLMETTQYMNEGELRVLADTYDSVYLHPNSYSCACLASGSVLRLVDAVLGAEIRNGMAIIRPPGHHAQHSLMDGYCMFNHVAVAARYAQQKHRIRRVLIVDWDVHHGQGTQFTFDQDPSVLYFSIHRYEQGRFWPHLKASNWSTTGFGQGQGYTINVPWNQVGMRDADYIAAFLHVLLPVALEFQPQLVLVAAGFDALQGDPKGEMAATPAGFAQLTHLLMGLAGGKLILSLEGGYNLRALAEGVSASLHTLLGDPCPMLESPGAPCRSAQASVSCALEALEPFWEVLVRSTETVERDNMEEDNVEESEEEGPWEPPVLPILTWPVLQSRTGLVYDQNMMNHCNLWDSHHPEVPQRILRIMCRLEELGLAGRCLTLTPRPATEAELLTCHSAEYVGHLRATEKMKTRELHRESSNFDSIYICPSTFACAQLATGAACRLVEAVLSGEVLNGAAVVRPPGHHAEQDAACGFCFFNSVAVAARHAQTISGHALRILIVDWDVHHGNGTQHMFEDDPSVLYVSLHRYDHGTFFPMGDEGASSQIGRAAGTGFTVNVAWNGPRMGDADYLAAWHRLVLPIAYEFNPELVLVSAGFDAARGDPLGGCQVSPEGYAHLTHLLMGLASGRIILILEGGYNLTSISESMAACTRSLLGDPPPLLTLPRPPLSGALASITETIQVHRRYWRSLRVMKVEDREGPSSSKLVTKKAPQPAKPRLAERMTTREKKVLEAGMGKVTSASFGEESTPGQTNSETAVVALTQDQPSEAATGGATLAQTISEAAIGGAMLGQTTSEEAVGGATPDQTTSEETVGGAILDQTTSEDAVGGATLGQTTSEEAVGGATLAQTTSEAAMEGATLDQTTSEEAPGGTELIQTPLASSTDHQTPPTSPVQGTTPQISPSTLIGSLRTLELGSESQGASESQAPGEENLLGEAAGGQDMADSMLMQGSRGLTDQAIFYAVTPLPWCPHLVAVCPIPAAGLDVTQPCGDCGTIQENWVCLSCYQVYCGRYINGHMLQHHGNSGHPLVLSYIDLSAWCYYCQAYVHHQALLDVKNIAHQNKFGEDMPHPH
Assay: Fluorogenic isoform-specific HDAC assay, HDAC6
IC50 for assorted molecules
Use µM as the unit, but write only the number.

Requested read-out: IC50. Entry: N=C(N)c1ccc2cc(OC(=O)c3ccc(N=C(N)N)cc3)ccc2c1
4.39

Here's the next entry for you.
Requested read-out: IC50. Entry: Oc1cc(O)cc(/C=C/c2ccc(O)c(O)c2)c1
8.22

----------
test system: HDAC I/II; assay: HDAC-Glo I/II assay in HCT116 cells; assay type: cell-based, human; settings: read-out: HDAC-Glo: IC50, HCT116; cherry-pick confirmation, 11 concentrations, 1 hour
pIC50: −log10 of the molar value.
Label not fulfilled if pIC50 falls below 6; label fulfilled in every other case.

Examples from the recorded data:
Confirm if pIC50 reported for the compound CCCCc1nc2cc(/C=C/C(=O)NO)ccc2n1CCN(CC)CC is 6 or above.
fulfilled

Now consider O=C(Nc1ccc([N+](=O)[O-])cc1Cl)c1cc(Cl)ccc1O [Niclosamide] and answer again.
not fulfilled

Now consider Oc1ccc(/C=C/c2cc(O)cc(O)c2)cc1 and answer again.
not fulfilled

Now consider Cc1oncc1C(=O)Nc1ccc(C(F)(F)F)cc1 [Leflunomide] and answer again.
not fulfilled

Now consider CC(/C=C/C(=O)NO)=C\[C@@H](C)C(=O)c1ccc(N(C)C)cc1 and answer again.
fulfilled

More entries:
Confirm if pIC50 reported for the compound O=C(Oc1ccccc1)c1cccc(C(=O)Oc2ccccc2)c1 [Diphenyl isophthalate] is 6 or above.
not fulfilled

Now consider O=S(=O)(O)c1ccc2[nH]c(-c3ccccc3)nc2c1 and answer again.
not fulfilled

----------
target: HDAC5 (Homo sapiens, UniProt Q9UQL6); assay: Fluorogenic isoform-specific HDAC assay, HDAC5
Sequence (Q9UQL6 whole entry, canonical isoform): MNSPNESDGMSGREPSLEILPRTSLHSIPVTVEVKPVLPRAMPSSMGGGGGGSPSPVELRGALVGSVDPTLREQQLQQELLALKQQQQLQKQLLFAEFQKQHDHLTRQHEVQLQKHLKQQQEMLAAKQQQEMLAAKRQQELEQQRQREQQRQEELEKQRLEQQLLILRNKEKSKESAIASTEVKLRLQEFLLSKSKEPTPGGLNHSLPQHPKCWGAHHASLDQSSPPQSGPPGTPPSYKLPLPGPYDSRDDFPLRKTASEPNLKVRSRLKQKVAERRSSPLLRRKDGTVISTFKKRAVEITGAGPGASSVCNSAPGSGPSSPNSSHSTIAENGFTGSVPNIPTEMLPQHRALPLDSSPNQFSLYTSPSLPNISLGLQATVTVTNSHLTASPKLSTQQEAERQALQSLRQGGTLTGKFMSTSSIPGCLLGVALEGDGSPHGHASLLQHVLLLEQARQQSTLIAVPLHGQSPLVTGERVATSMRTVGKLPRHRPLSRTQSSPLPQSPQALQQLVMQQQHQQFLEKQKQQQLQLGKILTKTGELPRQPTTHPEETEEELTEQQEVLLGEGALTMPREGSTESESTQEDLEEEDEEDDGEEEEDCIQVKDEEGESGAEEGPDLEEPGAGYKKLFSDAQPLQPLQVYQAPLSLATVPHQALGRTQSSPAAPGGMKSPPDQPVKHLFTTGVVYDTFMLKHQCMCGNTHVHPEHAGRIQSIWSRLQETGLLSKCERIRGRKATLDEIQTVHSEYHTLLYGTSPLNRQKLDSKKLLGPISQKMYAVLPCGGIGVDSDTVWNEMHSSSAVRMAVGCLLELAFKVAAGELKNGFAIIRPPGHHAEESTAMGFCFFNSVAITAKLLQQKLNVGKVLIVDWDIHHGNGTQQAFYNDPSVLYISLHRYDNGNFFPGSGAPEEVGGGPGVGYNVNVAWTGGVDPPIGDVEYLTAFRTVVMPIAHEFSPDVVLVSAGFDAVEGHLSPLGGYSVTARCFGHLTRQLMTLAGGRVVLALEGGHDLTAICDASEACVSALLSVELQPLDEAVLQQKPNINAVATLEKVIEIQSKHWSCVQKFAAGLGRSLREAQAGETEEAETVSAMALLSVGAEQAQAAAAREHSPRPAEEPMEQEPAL
metricName: pIC50
Convention used: pIC50 is expressed as -log10 of the molar concentration.

Requested read-out: pIC50. Entry: N=C(N)c1ccc2cc(OC(=O)c3ccc(N=C(N)N)cc3)ccc2c1
5.88

Now consider Oc1cc(O)cc(/C=C/c2ccc(O)c(O)c2)c1 and answer again.
6.05

----------
pIC50 for assorted compounds
test system: human neural stem cells; assay: CellTiter-Glo cell viability assay in hNSC; type: cell-based; details: Homo sapiens, Neural stem cell, 1 h, read-out: Viability: IC50, hNSC
Convention used: pIC50 is expressed as -log10 of the molar concentration.

Recorded pIC50, per entry:
Give recorded pIC50 with human neural stem cells for the following compound: O=C(O)c1cccc(-c2noc(-c3ccccc3F)n2)c1
4.85

Now consider CC(=O)Oc1ccccc1C(=O)Nc1ncc([N+](=O)[O-])s1 [Nitazoxanide] and answer again.
4.91

Now consider O=S(=O)(O)c1ccc2[nH]c(-c3ccccc3)nc2c1 and answer again.
4.80

Here's the next entry for you.
Give recorded pIC50 with human neural stem cells for the following compound: Oc1cc(O)cc(/C=C/c2ccc(O)c(O)c2)c1
4.71

----------
test system: HDAC I/II; test: HDAC-Glo I/II assay in HCT116 cells; format: cell-based, human; settings: read-out: IC50, HDAC-Glo I/II; HCT116 cells, time course, one hour treatment
metricName: pIC50
Convention used: pIC50 is expressed as -log10 of the molar concentration.

Requested read-out: pIC50. Entry: CC(/C=C/C(=O)NO)=C\[C@@H](C)C(=O)c1ccc(N(C)C)cc1
7.30

----------
assay: CellTiter-Glo cell viability assay in hNSC; type: cell-based, human; settings: human, human neural stem cells (hNSC)
metricName: viability at 1 h (%)
Use % as the unit, but write only the number.

Requested read-out: viability at 1 h. Entry: O=S(=O)(O)c1ccc2[nH]c(-c3ccccc3)nc2c1
58

More entries:
Requested read-out: viability at 1 h. Entry: Oc1cc(O)cc(/C=C/c2ccc(O)c(O)c2)c1
25

Now consider CC(=O)Oc1ccccc1C(=O)Nc1ncc([N+](=O)[O-])s1 [Nitazoxanide] and answer again.
40

Now consider O=C(O)c1cccc(-c2noc(-c3ccccc3F)n2)c1 and answer again.
86

----------
IC50 for assorted molecules
system: HDAC I/II; assay: HDAC-Glo I/II assay in HCT116 cells; assay type: cell-based, human; conditions: read-out: HDAC-Glo: IC50, HCT116; cherry-pick confirmation, 11 concentrations, 1 hour
Use nM as the unit, but write only the number.

Recorded IC50, per entry:
Requested read-out: IC50. Entry: CC(=O)Oc1ccccc1C(=O)Nc1ncc([N+](=O)[O-])s1 [Nitazoxanide]
1600

Now consider O=C(/C=C/c1ccc(O)cc1)c1ccc(O)cc1O and answer again.
1670

Now consider CC(C)c1ccc2oc3nc(N)c(C(=O)O)cc3c(=O)c2c1 and answer again.
1090

More entries:
Requested read-out: IC50. Entry: N=C(N)c1ccc2cc(OC(=O)c3ccc(N=C(N)N)cc3)ccc2c1
1110

Now consider CN(C)C(=O)COC(=O)Cc1ccc(OC(=O)c2ccc(NC(=N)N)cc2)cc1 and answer again.
1940

----------
biological target: HDAC3 (Homo sapiens, UniProt O15379); experiment: Fluorogenic isoform-specific HDAC assay, HDAC3
Sequence (O15379 whole entry, canonical isoform): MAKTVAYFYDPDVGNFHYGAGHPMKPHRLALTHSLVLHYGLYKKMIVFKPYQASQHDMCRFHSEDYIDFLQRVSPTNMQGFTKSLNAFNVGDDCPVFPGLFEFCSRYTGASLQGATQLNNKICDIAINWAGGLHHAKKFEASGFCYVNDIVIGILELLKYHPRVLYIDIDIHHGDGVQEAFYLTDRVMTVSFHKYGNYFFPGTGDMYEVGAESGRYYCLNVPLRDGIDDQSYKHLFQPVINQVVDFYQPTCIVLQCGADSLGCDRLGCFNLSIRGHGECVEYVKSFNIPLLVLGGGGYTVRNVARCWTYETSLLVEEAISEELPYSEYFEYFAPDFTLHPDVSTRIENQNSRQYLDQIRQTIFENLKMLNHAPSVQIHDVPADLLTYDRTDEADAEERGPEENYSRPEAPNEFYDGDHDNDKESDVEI
Sequence (Q9Y618 395-489 partner limits assumed): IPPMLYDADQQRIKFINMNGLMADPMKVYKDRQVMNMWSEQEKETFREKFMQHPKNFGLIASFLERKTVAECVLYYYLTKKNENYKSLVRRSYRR
pIC50 for assorted molecules
Convention used: pIC50 is expressed as -log10 of the molar concentration.

Requested read-out: pIC50. Entry: N=C(N)c1ccc2cc(OC(=O)c3ccc(N=C(N)N)cc3)ccc2c1
5.39

Here's the next entry for you.
Requested read-out: pIC50. Entry: Oc1cc(O)cc(/C=C/c2ccc(O)c(O)c2)c1
4.63

----------
system: HDAC I/II; assay: HDAC-Glo I/II assay in SU-DHL-6 cells; assay type: cell-based, human; settings: read-out: average IC50, HDAC-Glo I/II activity; SU-DHL-6, assay optimization, Figure 1A
metricName: IC50 (nM)
Use nM as the unit, but write only the number.

Requested read-out: IC50. Entry: CC(/C=C/C(=O)NO)=C\[C@@H](C)C(=O)c1ccc(N(C)C)cc1
100

----------
biological target: HDAC4 (Homo sapiens); experiment: Fluorogenic isoform-specific HDAC assay, HDAC4
Sequence (P56524 whole entry, canonical isoform): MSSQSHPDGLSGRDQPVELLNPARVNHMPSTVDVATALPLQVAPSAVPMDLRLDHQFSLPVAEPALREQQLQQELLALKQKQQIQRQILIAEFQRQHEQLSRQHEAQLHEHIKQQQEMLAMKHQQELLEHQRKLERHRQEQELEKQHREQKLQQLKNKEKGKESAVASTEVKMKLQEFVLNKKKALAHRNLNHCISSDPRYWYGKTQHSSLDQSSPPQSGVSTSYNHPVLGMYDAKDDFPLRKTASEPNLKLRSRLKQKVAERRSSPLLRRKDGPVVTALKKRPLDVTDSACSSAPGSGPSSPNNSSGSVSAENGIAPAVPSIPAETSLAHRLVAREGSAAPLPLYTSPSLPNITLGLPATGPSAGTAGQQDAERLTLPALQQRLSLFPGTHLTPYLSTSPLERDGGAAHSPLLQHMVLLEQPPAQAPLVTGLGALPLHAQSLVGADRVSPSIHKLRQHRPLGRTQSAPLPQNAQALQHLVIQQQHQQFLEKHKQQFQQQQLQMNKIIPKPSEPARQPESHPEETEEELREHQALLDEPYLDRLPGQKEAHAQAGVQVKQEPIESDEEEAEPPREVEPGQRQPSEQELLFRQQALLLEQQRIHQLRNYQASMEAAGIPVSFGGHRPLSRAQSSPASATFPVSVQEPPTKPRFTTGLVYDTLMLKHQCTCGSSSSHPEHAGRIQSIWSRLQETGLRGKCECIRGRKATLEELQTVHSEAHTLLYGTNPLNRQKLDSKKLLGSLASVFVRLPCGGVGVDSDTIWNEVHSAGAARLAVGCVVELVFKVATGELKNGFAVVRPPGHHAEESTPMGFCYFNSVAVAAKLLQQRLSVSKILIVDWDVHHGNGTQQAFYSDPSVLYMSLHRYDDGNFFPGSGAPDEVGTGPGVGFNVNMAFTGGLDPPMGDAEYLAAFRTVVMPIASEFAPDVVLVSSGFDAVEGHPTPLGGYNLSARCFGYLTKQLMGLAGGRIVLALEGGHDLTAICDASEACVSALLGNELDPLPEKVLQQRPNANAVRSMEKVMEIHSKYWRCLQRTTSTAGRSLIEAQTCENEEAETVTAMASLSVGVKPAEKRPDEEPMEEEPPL
metricName: pIC50
Convention used: pIC50 is expressed as -log10 of the molar concentration.

Give recorded pIC50 with HDAC4 (Homo sapiens) for the following compound: N=C(N)c1ccc2cc(OC(=O)c3ccc(N=C(N)N)cc3)ccc2c1
5.83

----------
target: HDAC1 (Homo sapiens, UniProt Q13547); assay: Fluorogenic isoform-specific HDAC assay, HDAC1
Sequence (Q13547 whole entry, canonical isoform): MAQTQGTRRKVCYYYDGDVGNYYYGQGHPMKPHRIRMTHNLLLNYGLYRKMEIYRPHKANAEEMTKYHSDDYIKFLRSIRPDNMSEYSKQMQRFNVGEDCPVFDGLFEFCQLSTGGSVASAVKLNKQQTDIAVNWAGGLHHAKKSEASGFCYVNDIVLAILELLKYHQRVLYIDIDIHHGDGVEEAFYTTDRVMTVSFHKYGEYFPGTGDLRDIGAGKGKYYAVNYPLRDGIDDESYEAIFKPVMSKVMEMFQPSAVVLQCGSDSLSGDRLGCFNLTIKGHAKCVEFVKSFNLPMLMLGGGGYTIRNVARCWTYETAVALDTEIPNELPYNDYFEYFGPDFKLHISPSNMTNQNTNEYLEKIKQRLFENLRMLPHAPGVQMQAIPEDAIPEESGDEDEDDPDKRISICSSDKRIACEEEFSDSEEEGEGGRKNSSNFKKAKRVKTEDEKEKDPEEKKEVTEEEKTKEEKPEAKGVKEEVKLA
metricName: pIC50
Convention used: pIC50 is expressed as -log10 of the molar concentration.

Give recorded pIC50 with HDAC1 (Homo sapiens, UniProt Q13547) for the following compound: N=C(N)c1ccc2cc(OC(=O)c3ccc(N=C(N)N)cc3)ccc2c1
5.33
